Taken from paper PMC10397247.

Target: T1, 4H968-bN
T1 chain: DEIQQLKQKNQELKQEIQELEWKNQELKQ
Assay: two-hybrid library CCNG1;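 note: natural log of median RNA to DNA barcode read ratio; higher means stronger binding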
measure: interaction score

For record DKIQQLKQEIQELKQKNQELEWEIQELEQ [4H2673-bN] the listed interaction score is -0.538

Form: binder = DEIQQLKQKIQELKQENQELEWKNQELEQ [4H855-bN] ; interaction score = -1.39

Record summary for DEIQQLKQENQELKQKNQELEWEIQELKQ [4H754-bN] : reported interaction score = -0.3

(1) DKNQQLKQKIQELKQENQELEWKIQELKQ [4H3926-bN]
(2) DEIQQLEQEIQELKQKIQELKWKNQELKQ [4H112-bN]
(3) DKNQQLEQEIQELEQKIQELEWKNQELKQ [4H3112-bN]
List by increasing interaction score. Rank the items, then write their labels in that order.
1, 3, 2
